- targetOrSystem: AKT1 E17K (Homo sapiens, UniProt P31749, E17K)
- Sequence (P31749 whole entry E17K): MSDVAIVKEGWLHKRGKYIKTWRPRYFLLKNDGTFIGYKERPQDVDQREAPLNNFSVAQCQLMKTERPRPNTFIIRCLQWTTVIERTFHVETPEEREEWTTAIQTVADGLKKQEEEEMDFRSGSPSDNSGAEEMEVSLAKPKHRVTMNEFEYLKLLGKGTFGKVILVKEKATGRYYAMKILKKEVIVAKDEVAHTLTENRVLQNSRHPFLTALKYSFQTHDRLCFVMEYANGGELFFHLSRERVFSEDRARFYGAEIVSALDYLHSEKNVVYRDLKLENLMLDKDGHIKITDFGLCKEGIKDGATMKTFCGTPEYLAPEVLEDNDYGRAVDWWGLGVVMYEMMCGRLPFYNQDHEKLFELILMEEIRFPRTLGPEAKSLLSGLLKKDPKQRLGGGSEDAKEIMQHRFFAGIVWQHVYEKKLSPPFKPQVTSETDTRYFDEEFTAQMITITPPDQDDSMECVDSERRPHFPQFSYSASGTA
- experimentalDetails: Live cell AKT1 E17K target engagement by NanoBRET competitive probe displacement
- studyConditions: HEK293 cells transfected with kinase-NanoLuciferase fusion, 2 h at 37° C.
measuredQuantity: log10 IC50 (log10 of the value in nM)
Annotation: log10 of IC50, nM basis.

Problem: Check AKT1 E17K (Homo sapiens, UniProt P31749, E17K) data and give log10 IC50 for `C=CC(=O)N1CCC(N[C@H]2CCc3cc(-n4c(-c5cccnc5N)nc5cc(C6CC6)cnc54)ccc32)CC1` .
Solution: 1.83

Problem: Fill: log10 IC50 (AKT1 E17K (Homo sapiens, UniProt P31749, E17K)) for this compound `C=CC(=O)N1CCC(N[C@H]2CCc3cc(-n4c(-c5cccnc5N)nc5cc(-c6ccncc6)cnc54)ccc32)CC1`
Solution: 2.34

Problem: State the measured log10 IC50 (AKT1 E17K (Homo sapiens, UniProt P31749, E17K)) of C=CC(=O)N1CCC(N[C@H]2CCc3cc(-n4c(-c5cccnc5N)nc5ccc(C6CC6)nc54)ccc32)C(F)C1 (mixture of isomers) [Example 175]
Solution: 1.25

Continuing:
Problem: Tell me log10 IC50 of `C=CC(=O)Nc1cc(C(=O)N[C@H]2CCc3cc(-n4c(-c5cccnc5N)nc5ccc(-n6cccn6)nc54)ccc32)ccn1` when tested on AKT1 E17K (Homo sapiens, UniProt P31749, E17K).
Solution: 0.85

Problem: # lookup: AKT1 E17K (Homo sapiens, UniProt P31749, E17K) log10 IC50, key = `C=CC(=O)N1CCC(N[C@H]2CCc3cc(-n4c(-c5cccnc5N)nc5ccc(OC6CC6)nc54)ccc32)CC1`
Solution: 1.20

Problem: With AKT1 E17K (Homo sapiens, UniProt P31749, E17K) as the test system, provide measured log10 IC50 for this compound: `C=CC(=O)N1CCC(N[C@H]2CCc3cc(-n4c(-c5cccnc5N)nc5ccc(-n6ccc(Cl)n6)nc54)ccc32)CC1`
Solution: 1.02

Problem: With AKT1 E17K (Homo sapiens, UniProt P31749, E17K) as the test system, provide measured log10 IC50 for this compound: `C=CC(=O)N1CCC(N[C@H]2CCc3cc(-n4c(-c5cccnc5N)nc5cc(-n6cccn6)cnc54)ccc32)CC1`
Solution: 2.51

Problem: For AKT1 E17K (Homo sapiens, UniProt P31749, E17K), give the measured log10 IC50 of the entry `C=CC(=O)N1CCN(N[C@@H]2CCc3cc(-n4c(-c5cccnc5N)nc5ccc(C6CC6)nc54)ccc32)CC1`
Solution: 1.86

Problem: GET log10 IC50 where system = AKT1 E17K (Homo sapiens, UniProt P31749, E17K) and item = `C=CC(=O)N1CCC(N[C@H]2CCc3cc(-n4c(-c5cccnc5N)nc5ccc(-c6cnn(C(F)(F)F)c6)nc54)ccc32)CC1`
Solution: 1.50

Problem: Give log10 IC50 for `C=CC(=O)N1CCC(N[C@H]2CCc3cc(-n4c(-c5cccnc5N)nc5ccc(-c6ccccn6)nc54)ccc32)CC1` tested on AKT1 E17K (Homo sapiens, UniProt P31749, E17K).
Solution: 0.85

Problem: GET log10 IC50 | system: AKT1 E17K (Homo sapiens, UniProt P31749, E17K) | item: C=CC(=O)N1C[C@H]2CCC[C@@H](C1)C2N[C@H]1CCc2cc(-n3c(-c4cccnc4N)nc4ccc(-n5cccn5)nc43)ccc21 (single isomer, unassigned) [Example 189]
Solution: 1.78
